Provenance of the data: PubChem BioAssay AID2570

Known max response of a selection of compounds
assayed.system: Vasopressin V1b receptor (Homo sapiens) (UniProt P47901)
Sequence (P47901 whole entry, looked up): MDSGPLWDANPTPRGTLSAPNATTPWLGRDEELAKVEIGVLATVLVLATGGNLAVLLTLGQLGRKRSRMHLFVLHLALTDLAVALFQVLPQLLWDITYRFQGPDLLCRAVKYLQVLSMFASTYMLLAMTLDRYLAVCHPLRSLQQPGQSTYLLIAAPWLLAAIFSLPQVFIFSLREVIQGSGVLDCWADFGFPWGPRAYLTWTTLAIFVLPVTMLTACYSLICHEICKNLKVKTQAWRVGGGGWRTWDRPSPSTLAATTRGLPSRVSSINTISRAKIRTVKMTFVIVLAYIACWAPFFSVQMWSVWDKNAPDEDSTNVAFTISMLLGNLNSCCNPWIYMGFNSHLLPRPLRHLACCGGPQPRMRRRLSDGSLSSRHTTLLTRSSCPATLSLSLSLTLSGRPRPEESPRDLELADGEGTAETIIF
test.name: Counterscreen Concentration-Response Assay for Antagonists of the Neuropeptide S Receptor: Vasopressin Receptor Calcium Signal Transduction
recorded.conditions: CHO-AVPR1B, vasopressin-stimulated calcium fluorescence, FDSS
Text: NIH Chemical Genomics Center [NCGC] NIH Molecular Libraries Probe Production centers Network [MLPCN] MLPCN Grant: X01-DA026210-01 Assay Submitter (PI): Heilig, Markus Alexander NCGC Assay Overview: Neuropeptide S receptor (NPSR), previously known as GPR154, is a recently de-orphanized G protein coupled receptor. […] This change in intracellular calcium can be detected using a calcium indicator dye on a calcium imaging plate reader system (FDSS). […]
Records with an inconclusive call do not appear.
Value expressed in %; do not type the unit.

Task item: Consider the compound shown here: COc1cccc(C2c3c(ncn(CCN4CCOCC4)c3=N)Oc3ccc4ccccc4c32)c1 (stereo not given) What is its recorded max response?
Reply: -2.37

* * *

Reported max response values for a set of compounds
assayed.system: Vasopressin V1b receptor (Homo sapiens) (UniProt P47901)
test.name: Counterscreen Concentration-Response Assay for Antagonists of the Neuropeptide S Receptor: Vasopressin Receptor Calcium Signal Transduction
recorded.conditions: CHO-AVPR1B, vasopressin-stimulated calcium fluorescence, FDSS
Excerpt: NIH Chemical Genomics Center [NCGC] NIH Molecular Libraries Probe Production centers Network [MLPCN] MLPCN Grant: X01-DA026210-01 Assay Submitter (PI): Heilig, Markus Alexander NCGC Assay Overview: Neuropeptide S receptor (NPSR), previously known as GPR154, is a recently de-orphanized G protein coupled receptor. […] This change in intracellular calcium can be detected using a calcium indicator dye on a calcium imaging plate reader system (FDSS). […]
Records with an inconclusive call do not appear.
Lab book: enter the figure in %, no units written.

Known max response results, listed for orientation:
# compound, endpoint.value
data = [
    ("COc1ccc(C2c3ccc(OCc4ccccc4)cc3Oc3ncn(CCN4CCOCC4)c(=N)c32)cc1OC (centres undefined)", -15.2),
    ("Cc1c(P(=S)(c2ccccc2)c2ccccc2)c2ccccc2n1CCc1ccccc1", -38.1),
    ("N=c1c2c(ncn1CCN1CCOCC1)Oc1ccc3ccccc3c1C2c1ccccc1 (centres undefined)", 25.9),
    ("COc1cccc(C2c3c(ncn(-c4cccc(C#N)c4)c3=N)Oc3ccc4ccccc4c32)c1 (centres undefined)", -10.9),
    ("COc1cccc(C2c3c(ncn(-c4cccc(C)c4)c3=N)Oc3ccc4ccccc4c32)c1 (centres undefined)", -55.3),
]

Task item: For the compound shown here, COc1ccc(C2c3c(n(CCCc4ccccc4)cnc3=N)Oc3ccc4ccccc4c32)cc1OC (centres undefined) , give the reported max response.
Reply: -23.2

Task item: GET /values?readout=max response&item= N=c1c2c(ccn1Cc1ccccc1)Oc1ccc3ccccc3c1C2c1ccccc1 (centres undefined)
Reply: 18.5

Task item: Consider the compound shown here: COc1ccc(C2c3c(ncn(Cc4ccccc4)c3=N)Oc3ccc4ccccc4c32)cc1OC (centres undefined) What is its recorded max response?
Reply: -10.2

* * *

assayed.system: Vasopressin V1b receptor (Homo sapiens) (UniProt P47901)
test.name: Counterscreen Concentration-Response Assay for Antagonists of the Neuropeptide S Receptor: Vasopressin Receptor Calcium Signal Transduction
recorded.conditions: CHO-AVPR1B, vasopressin-stimulated calcium fluorescence, FDSS
Results filed as inconclusive are left out.
List of max response values.
Report only the number, with the unit % understood.

Use the examples below as a reference point.
# compound, units.of.measure, endpoint.value
rows = [
    ("COc1cccc(C2C(C#N)=C(NC(=O)CCc3ccccc3)Oc3ccc4ccccc4c32)c1 (centres undefined)", "%", 10.7),
    ("CCOc1ccc(C2c3c(ncn(-c4ccccc4)c3=N)Oc3ccc4ccccc4c32)cc1OCC (centres undefined)", "%", -23.4),
    ("COc1cccc(C2c3c(ncn(-c4ccc5c(c4)OCO5)c3=N)Oc3ccc4ccccc4c32)c1 (centres undefined)", "%", -20.7),
    ("Cc1c(P(=S)(c2ccccc2)c2ccccc2)[n+]2ccccc2n1C/C=C/c1ccccc1", "%", 1.44),
    ("COc1cccc(C2c3c(ncn(-c4ccccc4-c4ccccc4)c3=N)Oc3ccc4ccccc4c32)c1 (centres undefined)", "%", 13.8),
]

Task item: Quick one: max response for COc1ccc(C2c3c(ncn(CCCc4ccccc4)c3=N)Oc3ccc4ccccc4c32)cc1OC (centres undefined) ?
Reply: 11.1

Task item: Entry under review: COc1ccc(C2C3=C(N=CN(CCN4CCOCC4)C3N)Oc3ccccc32)cc1OC (centres undefined) . Reported max response?
Reply: 19.6

Task item: I have this compound here, N=c1c2c(ncn1-c1ccccc1)Oc1ccc3ccccc3c1C2c1ccc2c(c1)CCO2 (centres undefined) , and I need its recorded max response.
Reply: -13.6

Task item: I would be grateful if you could share the reported max response for COc1cccc(C2c3c(ncn(-c4cccc(F)c4)c3=N)Oc3ccc4ccccc4c32)c1 (centres undefined) .
Reply: -14.9
